# assay.protocol: qHTS assay to identify small molecule agonists of the estrogen receptor beta (ER-beta) signaling pathway - cell viability counter screen (AID 1259380); further: nearly all actives have a fitted effect of over 30% in size
# condition.details: ER-beta-bla HEK293T viability, CellTiter-Glo luminescence, 16 h; series mostly up to 92.4 µM
Results filed as inconclusive are left out. Calls of active or inactive are those of the source. The call rests on the fitted dose curve; in most records, active means well fitted cell-killing curve with a large enough effect in the repeat runs; inconclusive means weak or mixed curves, or effect the other way; inactive means flat fitted curve, though single readings scatter.
// one of class 1 for active, class 0 for inactive, no free text

Some solved cases for reference:
Dear colleague, could you share the recorded outcome for `CCN(O)CC` when you have a moment?
class 0

Dear colleague, could you share the recorded outcome for `O=C(O)C(=O)Cc1c[nH]c2ccccc12` when you have a moment?
class 0

Dear colleague, could you share the recorded outcome for `CCCCCCn1c(=O)c2c(ncn2C)n(C)c1=O` when you have a moment?
class 0

Dear colleague, could you share the recorded outcome for `O=C(O)[C@@H]1CSCN1` when you have a moment?
class 0

Dear colleague, could you share the recorded outcome for `COC(=O)/C=C(/C)N` when you have a moment?
class 0

Dear colleague, could you share the recorded outcome for `COc1ccc(S(=O)(=O)Nc2nnc(CC(C)C)s2)cc1` when you have a moment?
class 0

Dear colleague, could you share the recorded outcome for `COc1cc(Cl)ccc1Cl` when you have a moment?
class 0

Dear colleague, could you share the recorded outcome for `O=C(O[C@@H](C(=O)O)[C@@H](OC(=O)c1ccccc1)C(=O)O)c1ccccc1` when you have a moment?
class 0

// switching to the query compound
Dear colleague, could you share the recorded outcome for `CC(=O)Oc1cc(C(C)C)c(OCCN(C)C)cc1C` when you have a moment?
class 0

* * *

# assay.protocol: Caspase-3/7 induction in CHO-K1 cells by small molecules, qHTS cell viability counter screen (AID 1346979); further: nearly all actives have a fitted effect of over 35% in size
# condition.details: CellTiter-Fluor fluorescence, 17 h; series mostly up to 92.4 µM
Inconclusive results are not listed. The source made the active and inactive calls. The call rests on the fitted dose curve; in most records, active means well fitted cell-killing curve with a large enough effect in the repeat runs; inconclusive means weak or mixed curves, or effect the other way; inactive means no such curve, though single readings can be large or run the other way.
// one of true (active), false (inactive), no free text

Dear colleague, could you share the recorded outcome for CC1=NN(c2cc(Cl)c(S(=O)(=O)O)cc2Cl)C(=O)C1N=Nc1ccc(S(=O)(=O)O)cc1 (stereo unspecified) when you have a moment?
true

Dear colleague, could you share the recorded outcome for `OCc1c2ccccc2cc2ccccc12` when you have a moment?
false

Dear colleague, could you share the recorded outcome for `O=C(CCCl)NCc1ccccc1` when you have a moment?
false

Further cases:
Dear colleague, could you share the recorded outcome for `CC(C)CCCCCCc1ccc(OCCOCCO)cc1` when you have a moment?
false

Dear colleague, could you share the recorded outcome for `Cc1cc2nc(N)sc2cc1C` when you have a moment?
false

* * *

# assay.protocol: A CellTox Green Cytotoxicity Assay to monitor cytotoxicity in HepG2 cells - 24 hour (AID 1224878); further: nearly all actives have a fitted effect of over 45% in size
# condition.details: CellTox Green fluorescence; series mostly up to 76.8 µM
Inconclusive results are not listed. Active and inactive are the calls of the source. Calls come from the whole dose curve; as a rule, active = well fitted activation curve with a large enough effect in the repeat runs; inconclusive = weak or mixed curves; inactive = flat fitted curve, though single readings scatter.
// one of active, inactive, no free text

Dear colleague, could you share the recorded outcome for `OCCN(CCO)CCN(CCO)CCO` when you have a moment?
inactive

Dear colleague, could you share the recorded outcome for `CCCCC(=O)O[C@]1(C(=O)CO)[C@H](C)C[C@H]2[C@@H]3CCC4=CC(=O)C=C[C@]4(C)[C@@]3(F)[C@@H](O)C[C@@]21C` when you have a moment?
inactive

Dear colleague, could you share the recorded outcome for `CCCCCCCCCCCCOCCOS(=O)(=O)O` when you have a moment?
active

Dear colleague, could you share the recorded outcome for CCCNC(C)C(=O)Nc1c(C)csc1C(=O)OC (stereo unspecified) when you have a moment?
inactive

Dear colleague, could you share the recorded outcome for `CCN[C@H]1CN(CCCOC)S(=O)(=O)c2sc(S(N)(=O)=O)cc21` when you have a moment?
inactive

Further cases:
Dear colleague, could you share the recorded outcome for CC1(C)S[C@@H]2[C@H](NC(=O)C(C(=O)O)c3ccccc3)C(=O)N2[C@H]1C(=O)O (stereo partly specified) when you have a moment?
inactive

Dear colleague, could you share the recorded outcome for `CS(=O)(=O)c1ccc([C@@H](O)[C@@H](CF)NC(=O)C(Cl)Cl)cc1` when you have a moment?
inactive
